So I've got a bunch of molecules here, and I need their IC50 values.
Target: Androgen receptor (AR) (Homo sapiens)
Sequence (P10275 whole entry): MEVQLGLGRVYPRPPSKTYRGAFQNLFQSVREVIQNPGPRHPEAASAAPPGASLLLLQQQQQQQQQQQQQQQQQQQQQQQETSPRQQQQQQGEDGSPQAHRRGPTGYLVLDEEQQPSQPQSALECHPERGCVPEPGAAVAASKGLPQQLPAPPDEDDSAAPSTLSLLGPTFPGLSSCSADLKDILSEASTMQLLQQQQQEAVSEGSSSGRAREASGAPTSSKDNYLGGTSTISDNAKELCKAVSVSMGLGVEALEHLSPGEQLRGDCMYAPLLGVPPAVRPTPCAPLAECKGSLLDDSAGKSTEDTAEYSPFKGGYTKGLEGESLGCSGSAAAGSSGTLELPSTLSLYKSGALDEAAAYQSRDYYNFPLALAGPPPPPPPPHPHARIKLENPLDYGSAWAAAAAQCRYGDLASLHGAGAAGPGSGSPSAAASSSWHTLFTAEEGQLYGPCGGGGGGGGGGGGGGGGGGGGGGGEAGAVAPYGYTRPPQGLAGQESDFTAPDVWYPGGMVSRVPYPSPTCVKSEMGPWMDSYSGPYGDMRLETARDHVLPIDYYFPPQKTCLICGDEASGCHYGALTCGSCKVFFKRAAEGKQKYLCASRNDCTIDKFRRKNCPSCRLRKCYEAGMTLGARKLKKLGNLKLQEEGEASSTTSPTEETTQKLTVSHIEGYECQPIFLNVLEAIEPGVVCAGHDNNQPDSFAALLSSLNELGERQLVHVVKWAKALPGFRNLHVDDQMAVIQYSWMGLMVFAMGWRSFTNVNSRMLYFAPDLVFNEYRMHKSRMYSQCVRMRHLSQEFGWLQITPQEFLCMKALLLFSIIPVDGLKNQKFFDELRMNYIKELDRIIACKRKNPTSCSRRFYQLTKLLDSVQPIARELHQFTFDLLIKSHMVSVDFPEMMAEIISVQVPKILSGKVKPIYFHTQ
Assay: Androgen receptor (AR) reporter gene assay (luciferase)
Conditions: AR+ARE/Luc HEK293T cells, stimulated with 11-KDHT, 24h incubation, Bright-Lite luminescence; read-out: HEK293 Luc IC50

Requested read-out: IC50. Entry: N#Cc1cc2c(c(Cl)c1OCCCl)CCCC2c1ccc2c(c1)C(=O)NC2 (centres unmarked)
500 to 1000 nM

Now try N#Cc1cc2c(c(Cl)c1OCCCl)CCCC2NC(=O)c1cccnc1 (centres unmarked) .
1000 to 2000 nM

Now try CCCOc1c(C#N)cc2c(c1Cl)CCCC2c1cnc2[nH]ncc2c1 (centres unmarked) .
1 to 500 nM

Now try N#Cc1cc2c(c(Cl)c1OCCCl)CCCC2c1ccc(N)nc1 (centres unmarked) .
1 to 500 nM

Now try ClCCOc1c(Cl)cc2c(c1Cl)CCCN2c1cc2cn[nH]c2cn1 .
> 2000 nM

Now try N#Cc1cc2c(c(Cl)c1OCCCl)CCCC2NC(=O)c1cn[nH]c1 (centres unmarked) .
1 to 500 nM

Now try ClCCOc1c(Cl)cc2c(c1Cl)CCCC2c1ccc2[nH]cnc2c1 (centres unmarked) .
500 to 1000 nM

Now try CNC(=O)Oc1ccc(C2CCCc3c2cc(C#N)c(OCCCl)c3Cl)cc1 (centres unmarked) .
1 to 500 nM

Now try N#Cc1cc2c(c(Cl)c1OCCCl)CCCC2NC(=O)c1ccc(Cl)cc1 (centres unmarked) .
1 to 500 nM

Now try CNC(=O)c1cc2c(c(Cl)c1OCCCl)CCCC2c1cnc2[nH]ncc2c1 (centres unmarked) .
1000 to 2000 nM

Now try N#Cc1cc2c(c(Cl)c1OCCCl)CCCC2NC(=O)c1ccc2[nH]ncc2c1 (centres unmarked) .
1 to 500 nM

Now try CN1Cc2ccc(C3CCCc4c3cc(C#N)c(OCCCl)c4Cl)cc2C1=O (centres unmarked) .
> 2000 nM

Now try N#Cc1cc2c(c(Cl)c1OCCCl)CCCC2Nc1cc[nH]n1 (centres unmarked) .
1000 to 2000 nM

Now try N#Cc1cc2c(c(Cl)c1OCCCl)CCCC2c1cnc2[nH]ncc2c1 (centres unmarked) [HANT-150A] .
1 to 500 nM

Now try N#Cc1cc2c(c(Cl)c1OCCCl)CCCC2Nc1cccc2[nH]ncc12 (centres unmarked) .
1 to 500 nM

Now try COc1ccc(C(=O)NC2CCCc3c2cc(C#N)c(OCCCl)c3Cl)cc1 (centres unmarked) .
500 to 1000 nM

Now try Oc1ccc(C2CCCc3c2cc(Cl)c(OCCCl)c3Cl)cn1 (centres unmarked) .
1000 to 2000 nM

Now try ClCCOc1c(Cl)cc2c(c1Cl)CCCC2N1CCc2[nH]ncc2C1 (centres unmarked) .
1 to 500 nM

Now try N#Cc1cc2c(c(Cl)c1OCCCl)CCCC2c1cnc2[nH]nc(C3CCOCC3)c2c1 (centres unmarked) .
> 2000 nM

Now try N#Cc1cc2c(c(Cl)c1OCCCl)CCCC2Nc1cn[nH]c1 (centres unmarked) .
500 to 1000 nM

Now try N#Cc1cc2c(c(Cl)c1OCCCl)CCCC2c1ccc2n[nH]c(=O)n2c1 (centres unmarked) .
1 to 500 nM

Now try N#Cc1cc2c(c(Cl)c1OCCCl)CCCC2c1ccc2[nH]ncc2n1 (centres unmarked) .
500 to 1000 nM

Now try N#Cc1cc2c(c(Cl)c1OCCCl)CCCC2NC(=O)c1ccccc1 (centres unmarked) .
1 to 500 nM

Now try ClCCOc1c(Cl)cc2c(c1Cl)CCCC2c1ccc2cn[nH]c2c1 (centres unmarked) .
1 to 500 nM

Now try N#Cc1cc2c(c(Cl)c1OCCCl)CCCC2c1cn[nH]c1 (centres unmarked) .
500 to 1000 nM

Now try Cn1cc2c(n1)CN(C1CCCc3c1cc(C#N)c(OCCCl)c3Cl)C2 (centres unmarked) .
1000 to 2000 nM

Now try CCCOc1c(C#N)cc2c(c1Cl)CCCC2c1cnc(N)nc1 (centres unmarked) .
1 to 500 nM

Now try N#Cc1cc2c(c(Cl)c1OCCCl)CCCC2c1ccc2c(c1)C(=O)NC2=O (centres unmarked) .
1 to 500 nM

Now try N#Cc1cc2c(c(Cl)c1OCCCl)CCCC2c1cccc2[nH]ncc12 (centres unmarked) .
1 to 500 nM

Now try COc1ccc(NC2CCCc3c2cc(C#N)c(OCCCl)c3Cl)cn1 (centres unmarked) .
1 to 500 nM

Now try N#Cc1cc2c(c(Cl)c1OCCCl)CCCC2NC(=O)c1cccc(Cl)c1 (centres unmarked) .
1 to 500 nM

Now try COc1ccc(C2CCCc3c2cc(C#N)c(OCCCl)c3Cl)cn1 (centres unmarked) .
1 to 500 nM

Now try N#Cc1cc2c(c(Cl)c1OCCCl)CCCC2c1cnc(N)nc1 (racemic) .
1 to 500 nM

Now try COc1cc(O)ccc1C1CCCc2c1cc(Cl)c(OCCCl)c2Cl (centres unmarked) .
1000 to 2000 nM

Now try N#Cc1cc2c(c(Cl)c1OCCCl)CCCC2Nc1cncnc1 (centres unmarked) .
1 to 500 nM

Now try CCCOc1c(C#N)cc2c(c1Cl)CCCC2Nc1ccc2[nH]ncc2c1 (centres unmarked) .
1 to 500 nM

Now try N#Cc1cc2c(c(Cl)c1OCCCl)CCCC2c1cc2cn[nH]c2cn1 (centres unmarked) .
1 to 500 nM

Now try N#Cc1cc2c(c(Cl)c1OCCCl)CCCC2Nc1ccc(N)nc1 (centres unmarked) .
500 to 1000 nM
